# target_desc: UniProtKB P12497

chem_smiles: O=C(Cn1ccn2c(=O)c(O)c(-c3ncc(Cc4ccc(F)cc4)o3)nc12)N1CCCCC1
IC50: 1 to 100 nM
//
chem_smiles: Cn1ccn2c(=O)c(O)c(-c3ncc(Cc4ccc(Cl)cc4)s3)nc12
IC50: 1 to 100 nM
//
chem_smiles: Cn1ccn2c(=O)c(O)c(-c3ncc(Cc4ccc(Cl)c(Cl)c4)s3)nc12
IC50: 1 to 100 nM
//
chem_smiles: Cn1ccn2c(=O)c(O)c(-c3ncc(Cc4ccc(F)c(Cl)c4)s3)nc12
IC50: 1 to 100 nM
//
chem_smiles: Cn1ccn2c(=O)c(O)c(-c3ncc(Cc4ccc(F)cc4)s3)nc12
IC50: 1 to 100 nM
//
chem_smiles: Cn1ccn2c(=O)c(O)c(C(=O)NCc3ccc(F)cc3)nc12
IC50: 100 to 1000 nM
//
chem_smiles: Cn1ccn2c(=O)c(O)c(C(=O)NCc3ccc(Cl)c(Cl)c3)nc12
IC50: 100 to 1000 nM
